System: OVCAR-3 ovarian
Test: NCI tumour cell line growth inhibition, 48 h; in the data active = GI50 below about 0.43 µM; inactive = the rest
In this exercise, the only acceptable responses are active, inactive

Some solved entries appear below for comparison.
Cc1nc2ccccc2c(/C=C/c2ccc(Cl)cc2)c1C(=O)/C=C/c1ccc(C(F)(F)F)cc1 : active
O=C(Nc1ccc(-n2ccc3c(NC(=O)c4ccccc4)ncnc32)cc1)Nc1ccc(Cl)c(Cl)c1 : inactive

Input: Hi, sorry to bother you, what did the test record for Cc1nnc(-c2cccc(-c3ccc(C(=O)NCC4CC4)cc3)c2)o1 ?
Output: inactive

Input: How about this molecule: CC(C)=CCC[C@](C)(O)[C@H]1CC[C@]2(C)[C@@H]1CC[C@@H]1[C@@]3(C)CC/C(=N/O)C(C)(C)[C@@H]3CC[C@]12C
Output: inactive

Input: How about this molecule: NCCOCCOCCNc1nc(-c2ccccc2)nc(N2CCN(c3ccccn3)CC2)n1
Output: inactive

Input: How about this molecule: O=C(c1ccccc1)C1OC1c1ccc([N+](=O)[O-])cc1 (stereo not drawn)
Output: inactive
